Recorded fold change (FC) values for a group of compounds are listed next.
- Assay Name: Drug uptake in HEK293T cells expressing luciferase reporter gene at 50 uM measured every 3 mins for 60 mins by luminescence assay relative to 50 uM luciferin
- Type: ADME, cell-based
- Condition Summary: human, hek-293t, 1 h
Positions of bridges follow the written chain, without caps; N, C: chain ends. Non-standard residues stand in square brackets, D forms with d. Residues, ends and D or L forms follow the SMILES beside them. *: point of attachment. X1 = O=C(OCCCS*)Oc1ccc2nc(C3=N[C@@H](C(=O)O)CS3)sc2c1; X2 = CC(=O)[C@H]1CSC(c2nc3ccc(OC(=O)OCCCS*)cc3s2)=N1; Mpa = O=C(O)CCS

Compound	fold change (FC)
CC(C)C[C@H](NC(=O)[C@H](CCCCN)NC(=O)[C@H](Cc1c[nH]c2ccccc12)NC(=O)[C@H](CCCNC(=N)N)NC(=O)CCSSCCCOC(=O)Oc1ccc2nc(C3=N[C@@H](C(=O)O)CS3)sc2c1)C(=O)N[C@@H](Cc1ccccc1)C(=O)N[C@@H](CC(N)=O)C(=O)N[C@@H](CCCCN)C(=O)N[C@@H](CCC(N)=O)C(=O)N[C@@H](CCC(=O)O)C(=O)N[C@@H](Cc1c[nH]c2ccccc12)C(N)=O ([Mpa](X1)RWKLFNKQEW-NH2)	18.2
CC(C)C[C@H](NC(=O)[C@H](CCCCN)NC(=O)[C@H](Cc1c[nH]c2ccccc12)NC(=O)[C@H](CCCNC(=N)N)NC(=O)[C@H](CCCCN)NC(=O)[C@H](CC(C)C)NC(=O)[C@@H](NC(=O)[C@H](CCCNC(=N)N)NC(=O)[C@@H](NC(=O)[C@H](CCCCN)NC(=O)CCSSCCCOC(=O)Oc1ccc2nc(C3=N[C@@H](C(=O)O)CS3)sc2c1)[C@@H](C)O)C(C)C)C(N)=O ([Mpa](X1)KTRVLKRWKL-NH2)	30.7
CC(C)C[C@H](NC(=O)[C@H](CO)NC(=O)CNC(=O)CCSSCCCOC(=O)Oc1ccc2nc(C3=N[C@@H](C(=O)O)CS3)sc2c1)C(=O)N[C@@H](CCCCN)C(=O)N[C@H](C(=O)N[C@@H](CCCNC(=N)N)C(=O)N[C@H](C(=O)N[C@@H](CC(C)C)C(=O)N[C@@H](CCCCN)C(=O)N[C@@H](CCCNC(=N)N)C(N)=O)C(C)C)[C@@H](C)O ([Mpa](X1)GSLKTRVLKR-NH2)	11.2
CC(C)C[C@H](NC(=O)[C@H](CCCCN)NC(=O)[C@H](Cc1c[nH]c2ccccc12)NC(=O)CCSSCCCOC(=O)Oc1ccc2nc(C3=N[C@@H](C(=O)O)CS3)sc2c1)C(=O)N[C@@H](Cc1ccccc1)C(=O)N[C@@H](CC(N)=O)C(=O)N[C@@H](CCCCN)C(=O)N[C@@H](CCC(N)=O)C(=O)N[C@@H](CCC(=O)O)C(=O)N[C@@H](Cc1c[nH]c2ccccc12)C(=O)N[C@H](C(N)=O)[C@@H](C)O ([Mpa](X1)WKLFNKQEWT-NH2)	14.7
CC(C)C[C@H](NC(=O)[C@H](CCCCN)NC(=O)[C@H](Cc1c[nH]c2ccccc12)NC(=O)[C@H](CCCNC(=N)N)NC(=O)[C@H](CCCCN)NC(=O)[C@H](CC(C)C)NC(=O)[C@@H](NC(=O)[C@H](CCCNC(=N)N)NC(=O)[C@@H](NC(=O)CCSSCCCOC(=O)Oc1ccc2nc(C3=N[C@@H](C(=O)O)CS3)sc2c1)[C@@H](C)O)C(C)C)C(=O)N[C@@H](Cc1ccccc1)C(N)=O ([Mpa](X1)TRVLKRWKLF-NH2)	216.3
CC(C)C[C@H](NC(=O)[C@H](CCCCN)NC(=O)[C@H](Cc1c[nH]c2ccccc12)NC(=O)[C@H](CCCNC(=N)N)NC(=O)[C@H](CCCCN)NC(=O)[C@H](CC(C)C)NC(=O)[C@@H](NC(=O)CCSSCCCOC(=O)Oc1ccc2nc(C3=N[C@@H](C(=O)O)CS3)sc2c1)C(C)C)C(=O)N[C@@H](Cc1ccccc1)C(=O)N[C@@H](CC(N)=O)C(=O)N[C@@H](CCCCN)C(N)=O ([Mpa](X1)VLKRWKLFNK-NH2)	30.3
CC(C)C[C@H](NC(=O)[C@H](CCCCN)NC(=O)[C@H](Cc1c[nH]c2ccccc12)NC(=O)[C@H](CCCNC(=N)N)NC(=O)[C@H](CCCCN)NC(=O)CCSSCCCOC(=O)Oc1ccc2nc(C3=N[C@@H](C(=O)O)CS3)sc2c1)C(=O)N[C@@H](Cc1ccccc1)C(=O)N[C@@H](CC(N)=O)C(=O)N[C@@H](CCCCN)C(=O)N[C@@H](CCC(N)=O)C(=O)N[C@@H](CCC(=O)O)C(N)=O ([Mpa](X1)KRWKLFNKQE-NH2)	13.6
CC(C)C[C@H](NC(=O)CCSSCCCOC(=O)Oc1ccc2nc(C3=N[C@@H](C(=O)O)CS3)sc2c1)C(=O)N[C@@H](CCCCN)C(=O)N[C@H](C(=O)N[C@@H](CCCNC(=N)N)C(=O)N[C@H](C(=O)N[C@@H](CC(C)C)C(=O)N[C@@H](CCCCN)C(=O)N[C@@H](CCCNC(=N)N)C(=O)N[C@@H](Cc1c[nH]c2ccccc12)C(=O)N[C@@H](CCCCN)C(N)=O)C(C)C)[C@@H](C)O ([Mpa](X1)LKTRVLKRWK-NH2)	30.1
CC(=O)N[C@@H](CSSCCCOC(=O)Oc1ccc2nc(C3=N[C@@H](C(C)=O)CS3)sc2c1)C(=O)N[C@H]1CSSC[C@@H](C(=O)N[C@@H](CCCNC(=N)N)C(=O)N[C@@H](CCCNC(=N)N)C(=O)N[C@@H](CCCNC(=N)N)C(N)=O)NC(=O)[C@H](Cc2c[nH]c3ccccc23)NC(=O)[C@@H]2CCCN2C(=O)[C@H](Cc2ccc(O)cc2)NC(=O)CNC(=O)[C@H](Cc2cnc[nH]2)NC(=O)[C@H](Cc2ccc(O)cc2)NC(=O)[C@H](CCCCN)NC(=O)[C@H](C)NC(=O)[C@H](C(C)C)NC1=O (Ac-C(X2)CVAKYHGYPWCRRR-NH2; disulfide 2-12)	22.8
CC(C)C[C@H](NC(=O)[C@H](CO)NC(=O)CCSSCCCOC(=O)Oc1ccc2nc(C3=N[C@@H](C(=O)O)CS3)sc2c1)C(=O)N[C@@H](CCCCN)C(=O)N[C@H](C(=O)N[C@@H](CCCNC(=N)N)C(=O)N[C@H](C(=O)N[C@@H](CC(C)C)C(=O)N[C@@H](CCCCN)C(=O)N[C@@H](CCCNC(=N)N)C(=O)N[C@@H](Cc1c[nH]c2ccccc12)C(N)=O)C(C)C)[C@@H](C)O ([Mpa](X1)SLKTRVLKRW-NH2)	16.7
